Origin of measurements: patent US9732075B2

Attribute: pIC50
target: human orexin-2 receptor (Homo sapiens (Human)); experiment: In vitro assay: intracellular calcium measurements (FLIPR), antagonistic activity; conditions: CHO cells expressing human orexin-2 receptor, orexin-A agonist, geometric mean, read-out: IC50 Ox2
Units for pIC50: none; it is -log10 of a concentration expressed in mol/L.

Example entries and their recorded answers appear below.
Molecule | Numeric value
Cc1nc(C(=O)N2CCCC2c2nc3c(C(F)(F)F)cccc3[nH]2)c(-c2cccc(Cl)c2)s1 (stereo not shown) | 7.05
C=C1CN(C(=O)c2ccccc2-c2ccccc2)C(C)(c2nc3cc(OC)ccc3[nH]2)C1 (stereo not shown) | 7.04
Cc1c(Cl)ccc2nc([C@]3(C)CCCN3C(=O)c3cc(F)ccc3-c3ccccn3)[nH]c12 | 7.14
Cc1ccc(-n2nccn2)c(C(=O)N2CC[C@H](C)[C@H]2c2nc3c(C)cc(Cl)cc3[nH]2)c1F | 6.01
C=C1C[C@@H](c2nc3cc(C(C)(C)C)ccc3[nH]2)N(C(=O)c2c(-n3nccn3)ccc(C)c2F)C1 | 8.05
Cc1cc(Cl)cc2[nH]c([C@@H]3[C@@H](C)CCN3C(=O)c3cc(Cl)ccc3-n3nccn3)nc12 | 6.74

The value of pIC50 measured for the molecule C=C1C[C@@H](c2nc3c(C)cccc3[nH]2)N(C(=O)c2nc(C)sc2-c2cccc(Cl)c2)C1 turned out to be 8.70

The value of pIC50 measured for the molecule Cc1nc(C(=O)N2CCCC2c2nc3c(C)c(C)ccc3[nH]2)c(-c2cccc(Cl)c2)s1 (stereo not shown) turned out to be 7.72

The value of pIC50 measured for the molecule C=C1C[C@@H](c2nc3ccc(Cl)c(C)c3[nH]2)N(C(=O)c2nc(C)sc2-c2ccc(F)cc2)C1 turned out to be 8.40

The value of pIC50 measured for the molecule Cc1cc2nc([C@]3(C)CCCN3C(=O)c3ccccc3-c3ccc(F)cc3)[nH]c2cc1C turned out to be 7.01

The value of pIC50 measured for the molecule Cc1ccc(-c2ccc3c(c2)OCO3)c(C(=O)N2CCC[C@@]2(C)c2nc3cc(C(F)(F)F)c(Cl)cc3[nH]2)c1 turned out to be 7.27

====

Target: human orexin-1 receptor (Homo sapiens (Human), UniProt O43613)
Sequence (O43613 whole entry): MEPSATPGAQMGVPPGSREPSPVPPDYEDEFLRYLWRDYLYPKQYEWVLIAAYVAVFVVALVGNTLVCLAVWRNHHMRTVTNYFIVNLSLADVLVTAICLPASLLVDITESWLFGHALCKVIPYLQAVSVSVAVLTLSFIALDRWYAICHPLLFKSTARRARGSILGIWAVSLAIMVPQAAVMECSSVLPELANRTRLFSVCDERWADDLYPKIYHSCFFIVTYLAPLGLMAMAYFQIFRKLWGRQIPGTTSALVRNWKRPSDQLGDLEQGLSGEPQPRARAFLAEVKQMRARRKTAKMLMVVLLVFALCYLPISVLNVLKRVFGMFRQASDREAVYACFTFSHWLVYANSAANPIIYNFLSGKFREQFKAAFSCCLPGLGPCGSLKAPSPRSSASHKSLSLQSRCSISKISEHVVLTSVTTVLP
Assay: In vitro assay: intracellular calcium measurements (FLIPR), antagonistic activity
Settings: CHO cells expressing human orexin-1 receptor, orexin-A agonist, geometric mean, read-out: IC50 Ox1
Protocol: In Vitro Assay: Intracellular Calcium Measurements: […] Within the Fluorescent Imaging Plate Reader (FLIPR Tetra, Molecular Devices), antagonists are added to the plate in a volume of 10 μl/well, incubated for 120 min and finally 10 μl/well of agonist is added. […] The calculated IC50 values may fluctuate depending on the daily cellular assay performance. […]
Attribute: pIC50
Units for pIC50: none; it is -log10 of a concentration expressed in mol/L.

Example entries and their recorded answers appear below.
Compound | Property name | Numeric value
C=C1CC(c2nc3cc(C(C)(C)C)ccc3[nH]2)N(C(=O)c2nc(C3CC3)sc2-c2cccc(C)c2)C1 (stereo not drawn) | pIC50 | 6.63
Cc1cc2[nH]c([C@@H]3[C@@H](C)CCN3C(=O)c3ccccc3-n3nccn3)nc2cc1Cl | pIC50 | 8.10

As a next step, examine the compound that follows.
The value of pIC50 measured for the compound Cc1cc(C(=O)N2CCC[C@@]2(C)c2nc3c(C)c(Cl)ccc3[nH]2)c(-n2nccn2)cc1C turned out to be 8.70

====

molecular target: human orexin-2 receptor (Homo sapiens (Human), UniProt O43614); assay: In vitro assay: intracellular calcium measurements (FLIPR), antagonistic activity; conditions: CHO cells expressing human orexin-2 receptor, orexin-A agonist, geometric mean, read-out: IC50 Ox2
Sequence (O43614 whole entry): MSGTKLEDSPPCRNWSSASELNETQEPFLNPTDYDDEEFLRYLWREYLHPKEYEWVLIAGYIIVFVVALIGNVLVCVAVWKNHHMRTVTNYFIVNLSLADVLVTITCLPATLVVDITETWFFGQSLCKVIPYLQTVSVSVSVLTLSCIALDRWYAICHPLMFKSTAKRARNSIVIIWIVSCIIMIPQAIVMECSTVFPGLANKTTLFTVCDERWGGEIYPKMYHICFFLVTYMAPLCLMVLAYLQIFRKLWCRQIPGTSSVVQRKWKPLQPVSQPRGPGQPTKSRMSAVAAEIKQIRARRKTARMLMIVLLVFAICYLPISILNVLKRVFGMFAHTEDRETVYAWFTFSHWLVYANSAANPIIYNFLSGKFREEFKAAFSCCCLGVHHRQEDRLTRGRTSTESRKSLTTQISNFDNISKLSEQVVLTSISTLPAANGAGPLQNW
Attribute: pIC50
Units for pIC50: none; it is -log10 of a concentration expressed in mol/L.

Compound | Study system | pIC50
COc1cccc(-c2ccc(C)cc2C(=O)N2CCC[C@@]2(C)c2nc3cc(C)c(C)cc3n2CC2CC2)c1 | human orexin-2 receptor (Homo sapiens (Human), UniProt O43614) | 6.76
CCn1c([C@]2(C)CCCN2C(=O)c2cc(C)ccc2-c2cccc(C)c2)nc2cc(C)c(C)cc21 | human orexin-2 receptor (Homo sapiens (Human), UniProt O43614) | 7.77
COc1ccc2nc([C@@H]3CCCN3C(=O)c3cc(Cl)ccc3-n3nccn3)[nH]c2c1 | human orexin-2 receptor (Homo sapiens (Human), UniProt O43614) | 8.00

pIC50 on human orexin-2 receptor (Homo sapiens (Human), UniProt O43614) for Cc1ccc(-n2nccn2)c(C(=O)N2CC[C@H](C)[C@H]2c2nc3c(C(F)(F)F)cccc3[nH]2)c1 is 5.73

pIC50 on human orexin-2 receptor (Homo sapiens (Human), UniProt O43614) for CSc1ccc2nc([C@@H]3CCCN3C(=O)c3cncnc3-c3ccc(C)c(C)c3)[nH]c2c1 is 7.05

pIC50 on human orexin-2 receptor (Homo sapiens (Human), UniProt O43614) for CO[C@H]1CN(C(=O)c2cc(C)ccc2-n2nccn2)C(C)(c2nc3c(C)c(Cl)ccc3[nH]2)C1 (stereo partly shown) is 8.15

pIC50 on human orexin-2 receptor (Homo sapiens (Human), UniProt O43614) for Cc1ccc(-c2cccc(F)c2)c(C(=O)N2CCC[C@@]2(C)c2nc3cc(C)c(C)cc3n2CCF)c1 is 7.70

pIC50 on human orexin-2 receptor (Homo sapiens (Human), UniProt O43614) for Cc1c(Cl)ccc2[nH]c([C@]3(C)CCCN3C(=O)c3cc(OC(F)(F)F)ccc3-n3nccn3)nc12 is 7.00

pIC50 on human orexin-2 receptor (Homo sapiens (Human), UniProt O43614) for C=C1CC(c2nc3cc(Cl)c(C)cc3[nH]2)N(C(=O)c2cc(C)sc2-c2ccc(C)c(C)c2)C1 (racemic) is 7.72

pIC50 on human orexin-2 receptor (Homo sapiens (Human), UniProt O43614) for Cc1ccc(-n2nccn2)c(C(=O)N2CCC[C@@]2(C)c2nc3cc(F)c(Br)cc3n2C)c1 is 6.91

====

target: human orexin-1 receptor (Homo sapiens (Human), UniProt O43613); assay: In vitro assay: intracellular calcium measurements (FLIPR), antagonistic activity; conditions: CHO cells expressing human orexin-1 receptor, orexin-A agonist, geometric mean, read-out: IC50 Ox1
Property name: pIC50
Units for pIC50: none; it is -log10 of a concentration expressed in mol/L.

Example entries and their recorded answers appear below.
Compound | Numeric value
Cc1cc(F)ccc1-c1nc(C(=O)N2CCC[C@@]2(C)c2nc3c(C)c(Cl)ccc3[nH]2)c(-c2ccc(F)cc2)s1 | 7.54
C=C1C[C@@H](c2nc3cc(C)c(C)cc3[nH]2)N(C(=O)c2c(-n3nccn3)ccc(OC)c2F)C1 | 7.37
Cc1ccc(-n2nccn2)c(C(=O)N2CCC[C@@]2(C)c2nc3c(C(F)(F)F)cccc3[nH]2)c1 | 7.96
Cc1ccc(-c2ncccn2)c(C(=O)N2CC[C@H](C)[C@H]2c2nc3ccc(Cl)c(C)c3[nH]2)c1 | 8.52
Cc1nc(C(=O)N2CCC[C@@]2(C)c2nc3c(F)c(F)ccc3[nH]2)c(-c2cccc(Cl)c2)s1 | 7.82
C=C1CC(c2nc3cc(Cl)c(C(F)(F)F)cc3[nH]2)N(C(=O)c2nc(C3CC3)sc2-c2cccc(C)c2)C1 (racemic) | 7.85
COc1cc2nc([C@]3(C)CCCN3C(=O)c3cc(OC(F)(F)F)ccc3-n3nccn3)[nH]c2cc1OC | 6.86

As a next step, examine the compound that follows.
pIC50 on human orexin-1 receptor (Homo sapiens (Human), UniProt O43613) for COc1ccc(-c2cccc(OC(F)(F)F)c2)c(C(=O)N2CCC[C@@]2(C)c2nc3c(C)c(Cl)ccc3[nH]2)c1F is 7.64

====

Molecular target: human orexin-2 receptor (Homo sapiens (Human))
Experiment: In vitro assay: intracellular calcium measurements (FLIPR), antagonistic activity
Conditions: CHO cells expressing human orexin-2 receptor, orexin-A agonist, geometric mean, read-out: IC50 Ox2
Procedure: In Vitro Assay: Intracellular Calcium Measurements: […] Within the Fluorescent Imaging Plate Reader (FLIPR Tetra, Molecular Devices), antagonists are added to the plate in a volume of 10 μl/well, incubated for 120 min and finally 10 μl/well of agonist is added. […] The calculated IC50 values may fluctuate depending on the daily cellular assay performance. […]
Attribute: pIC50
Units for pIC50: none; it is -log10 of a concentration expressed in mol/L.

Example entries and their recorded answers appear below.
Record smiles | pIC50
Cc1ccc(-n2nccn2)c(C(=O)N2CCC[C@@]2(C)c2nc3c(Cl)cc(C(F)(F)F)cc3[nH]2)c1 | 7.51
Cc1nc(C(=O)N2CC[C@H](C)[C@H]2c2nc3cc(CO)ccc3[nH]2)c(-c2cccc(Cl)c2)s1 | 5.25
COc1ccc(-n2nccn2)c(C(=O)N2CC[C@H](C)[C@H]2c2nc3cc(Cl)c(C)cc3[nH]2)c1 | 7.11
COc1ccc2nc([C@@H]3CCCN3C(=O)c3cc(F)ccc3-n3nccn3)[nH]c2c1 | 7.54
COc1cc2nc([C@@H]3[C@@H](C)CCN3C(=O)c3nc(C)sc3-c3ccc(C(F)(F)F)cc3)[nH]c2cc1OC | 5.37
COc1ccc(-n2nccn2)c(C(=O)N2CCC[C@@]2(C)c2nc3c(C)c(Cl)ccc3[nH]2)c1F | 7.80

pIC50 on human orexin-2 receptor (Homo sapiens (Human)) for Cc1nc(C(=O)N2CC[C@H](C)[C@H]2c2nc3cc(C(F)(F)F)ccc3[nH]2)c(-c2cccc(Cl)c2)s1 is 5.56

pIC50 on human orexin-2 receptor (Homo sapiens (Human)) for C[C@@]1(c2nc3cc(C(F)(F)F)c(Cl)cc3[nH]2)CCCN1C(=O)c1cc(OC(F)(F)F)ccc1-n1nccn1 is 6.95
